# Tested on: Calu-3
# Protocol text: cell viability relative to DMSO; higher = less toxic
# Reported conditions: 72 h; 1000 nM
Experimental endpoint: cell viability (%)
Answer with a number only, understood to be in %.

Examples with answers:
compound="CC1(C)CC(=O)C(C2C3=C(CC(C)(C)CC3=O)Oc3ccccc32)C(=O)C1 (stereo not given)" experimental_endpoint="cell viability" unit_tag=% measured_value=101
compound=CC(=O)Oc1ccccc1C(=O)O experimental_endpoint="cell viability" unit_tag=% measured_value=92.6

Look up Calu-3 data: cell viability of "CN1CC(=O)NC1=N" , then report it.
95.7

Look up Calu-3 data: cell viability of "O=C(O)CCCC[C@@H]1SC[C@@H]2NC(=O)N[C@@H]21" , then report it.
102

Look up Calu-3 data: cell viability of "COC(c1ccccc1)(c1ccccc1)[C@H](Oc1nc(C)cc(C)n1)C(=O)O" , then report it.
88.9
